Data origin, for the record: ChEMBL document CHEMBL3507680

Assay: Human HepG2 cell viability assay in 384 well format
Type: toxicity, cell-based
Parameters: dose 125 nL, time 70.5 hour; concentration not given beside the values
Conditions: HepG2 cells, read-out: Inhibition
For each entry below, report its cytotoxicity at 70.5 h value.
Express your answer as a number followed by its unit.

Look over these answered cases.
COc1ccccc1N1CCC(N2CCOCC(CO)C2)CC1 (centres undefined): -6.73%
O=C(CCc1ccccc1)NCC1CCN(Cc2ccsc2)CC1: 5.29%
Cn1cnnc1CN1CCC2(CCCN(C3CCCCC3)C2=O)C1 (centres undefined): -1.45%
CN(C)c1nccc(-c2c[nH][nH]c2=O)n1: -1.59%
O=C(Nc1ccc(CCN2CCC(O)CC2)cc1)C1CCOCC1: 9.76%

Could I get cytotoxicity at 70.5 h for every one of these entries?
1. CC(C)C(CCO)NC(=O)Nc1cc(F)ccc1-n1cccn1 (centres undefined)
2. COCC1CN(S(=O)(=O)Cc2ccccc2)Cc2c1cnn2C (centres undefined)
3. Cc1cc(C2CCCN2C(=O)c2cc3c(s2)CCC3)no1 (centres undefined)
4. CC(C)c1ncc(CN2CCC(CO)C2)cn1 (centres undefined)
5. CCCc1noc(C2CCN(C(=O)CCn3nc(C)cc3C)CC2)n1
6. c1coc(CN2CCCC3(COCCN(Cc4c[nH]nn4)C3)C2)c1 (centres undefined)
7. Cc1cc(NC(C)C(=O)NCC(F)(F)F)nc(-c2ccncc2)n1 (centres undefined)

1: -3.1%; 2: -1.14%; 3: -0.925%; 4: -4.22%; 5: -7%; 6: -2.53%; 7: -16.5%

====

Assay: Human HepG2 cell viability assay in 384 well format
Assay type: toxicity, cell-based
Parameters: dose 125 nL, time 70.5 hour; concentration not given beside the values
Conditions: HepG2 cells, read-out: Inhibition
For each entry below, report its cytotoxicity at 70.5 h value.
Numbers only, in %.

Look over these answered cases.
CSCC(=O)N1CCC(Oc2cccc(C)c2)CC1: -7.4
COCCN1CCC(CNC(=O)C2(c3ccccc3)CCOCC2)C1 (configuration not stated): -4.78
Cc1nc(CNC(=O)NCC(O)c2ccc(F)c(F)c2)cs1 (configuration not stated): 1.43

Could I get cytotoxicity at 70.5 h for every one of these entries?
1. CNC(=O)CN(C)c1nc(-c2ccncc2)nc2c1CCN(C(C)=O)C2
2. CCn1nc(C)c2nc(C(C)C)nc(NCCCO)c21
3. N#Cc1cc(NC(=O)C2CC=CC2)ccc1N1CCC(O)CC1

[-6.78, -16.2, -0.67]

====

Experiment: Human HepG2 cell viability assay in 384 well format
Assay type: toxicity, cell-based
Design: dose 125 nL, time 70.5 hour; concentration not given beside the values
Conditions: HepG2 cells, read-out: Inhibition
For each entry below, report its cytotoxicity at 70.5 h value.
Numbers only, in %.

CC(CCCC(C)(C)O)Nc1ccc(-c2nccn2C)nn1 (configuration not stated): 0.443

Could I get cytotoxicity at 70.5 h for every one of these entries?
1. Cc1ccc(-c2nc(CN3CCN(CC(=O)N(C)C)CC3)cs2)o1
2. Cc1nc(NC(=O)COCC2CC2)ccc1Br
3. Cc1cc(NC(=O)NCCc2cccnc2)n(C)n1
4. CCc1noc(C)c1C(=O)Nc1cnn(CC(=O)NC2CCCC2)c1
5. CC(CN1CCOCC1)NC(=O)N(C)Cc1ccc(Cl)s1 (configuration not stated)

-5.37
-8.55
-3.88
-1.44
-2.73

====

Assay: Human HepG2 cell viability assay in 384 well format
Format: toxicity, cell-based
Parameters: dose 125 nL, time 70.5 hour; concentration not given beside the values
Details: HepG2 cells, read-out: Inhibition
Each record is given true (1) if its reported cytotoxicity at 70.5 h is strictly below -10%. Records at or above -10% are given false (0).

Illustrative cases are given below, each with its answer.
CCN(CC)S(=O)(=O)N1CCCC1c1nnc2n1CCN(C)CC2 (stereo unspecified): true (1)
COc1cc(Br)c(CNc2ccn(CCC(N)=O)n2)cc1OC: false (0)
O=C(Nc1ccc(S(=O)(=O)Nc2ccccc2)cc1)N1CCCC1: true (1)
CCn1nc2c(cc1=O)CN(Cc1nc(C)c(C)o1)CC2: true (1)
COc1cccc(CN2CCC3(CC2)CCN(C(=O)[C@@H]2CCCO2)C3)c1: false (0)

Would you kindly look at the next entry?
Would you kindly verify if cytotoxicity at 70.5 h of Cn1ccnc1CN1CCN(Cc2cc(-c3ccccc3)no2)CC1 is strictly less than -10%?
true (1)

====

For each entry below, report its HILLSLOPE value.
Experiment: Human HepG2 cell viability dose-response assay
Assay type: toxicity, cell-based
Give bare numbers.

CC(C)N(C)C(=O)c1ccc(CNc2ccncc2Cl)cc1: 0
COC[C@H]1CCC[C@]12CN(Cc1cccc(C)n1)CCO2: 0
CC(C)n1ccc(C(=O)NCC(O)c2c(Cl)cccc2Cl)n1 (centres undefined): 0

Proceed to the following item.
State, in one line, measured HILLSLOPE of c1cncc(CN2CCCn3nnc(CN4CCCCC4)c3C2)c1
0

====

For each entry below, report its cytotoxicity at 70.5 h value.
Assay: Human HepG2 cell viability assay in 384 well format
Assay type: toxicity, cell-based
Set-up: dose 125 nL, time 70.5 hour; concentration not given beside the values
Details: HepG2 cells, read-out: Inhibition
Answers are plain numbers, in %.

Look over these answered cases.
Cc1nc(C)n(CC2CN(c3ncccn3)Cc3nccn3C2)n1 (stereo unspecified): -8.98
CC(=O)N1CCCN(C(=O)NCc2ccccn2)CC1: 3.62
Cc1cc(-c2ccc(=O)n(CCNC(=O)C3CC3)n2)c(C)o1: 0.992
Cc1ccoc1C(=O)NCC(c1ccccc1Cl)N1CCOCC1 (stereo unspecified): -1.62
NC1CCCCN(Cc2cc(-c3ccccc3OC(F)(F)F)no2)C1 (stereo unspecified): -8.03

State, in one line, measured cytotoxicity at 70.5 h of N#Cc1ccc(CCC(=O)N2CCC(CN3CCOCC3)CC2)cc1
23.1

====

Assay: Human HepG2 cell viability assay in 384 well format
Assay type: toxicity, cell-based
Design: dose 125 nL, time 70.5 hour; concentration not given beside the values
Settings: HepG2 cells, read-out: Inhibition
measuredAttribute: cytotoxicity at 70.5 h (%)
One number for each entry, in %.

Look over these answered cases.
Cc1c(C2SCC(=O)Nc3c2c(O)nn3C2CCCCC2)cnn1C (centres undefined): -24.4
O=C(N[C@@H]1CC[C@@H](n2ccnc2)[C@@H]1O)c1cc2c(s1)CCC2: 1.51
CC(C)[C@H](CO)Nc1nccc(-c2c[nH]nc2-c2ccncc2)n1: -3.12
CCc1n[nH]c(C2CN(Cc3nnc(C4CC4)o3)CCO2)n1 (centres undefined): -1.31
Clc1cnccc1N1CCCC2(CCCOC2)C1 (centres undefined): 1.82
Fc1ccc(-c2nnc(CN3CCCC(Cn4cncn4)C3)o2)cc1 (centres undefined): -5.49
CC(C)(C)c1noc(CCCC(=O)N2CCCC(c3ccn[nH]3)C2)n1 (centres undefined): -2.4
CC(=O)NCCNC(=O)CCn1c(C)cc2ccccc21: -3.8
CC(=O)Nc1ccc(SCC(=O)NCC2CCCO2)nn1 (centres undefined): -2.02
COc1ccc(C2SCC(=O)N2c2ncc(C)s2)cc1 (centres undefined): -1.35

Could I get cytotoxicity at 70.5 h for every one of these entries?
1. CNC(=O)c1cn[nH]c1C1(C)CCCN(Cc2ccccn2)C1 (centres undefined)
2. CCn1cc(NC(=O)NCC(O)CN2CCCCC2)cn1 (centres undefined)
3. OCCc1ncnn1Cc1cccc(Cl)c1
4. COc1ccccc1C1(CNCc2ccc(C#N)cc2)CCOCC1
5. COCc1c(Br)cccc1NC(=O)CC(F)(F)F
6. Cn1cccc1C(=O)NS(=O)(=O)c1cnn(-c2ccccc2F)c1
7. CCN(CC)CCn1ccnc1-c1cccc(C#N)c1

1. -7.3
2. -14.9
3. 44.4
4. -6.31
5. -13.2
6. 11.6
7. -4.77

Could I get cytotoxicity at 70.5 h for every one of these entries?
1. CCCOC1CCCN(C(=O)c2csc(S(N)(=O)=O)c2)C1 (centres undefined)
2. CN1CCN(Cc2noc(CCc3nc(-c4ccccc4)no3)n2)CC1
3. N#CCc1ccc(OCC(=O)NS(=O)(=O)c2ccc(Br)s2)cc1
4. CN(C)C(=O)CO[C@H]1CO[C@@]2(CCN(Cc3ccoc3)C2)C1
5. c1ncn(Cc2cn3c(n2)CN(CC2CCCCC2)CC3)n1
6. c1cncc(CNc2cncc(C3CCCN3)n2)c1 (centres undefined)
7. CCOC1COC2(CCN(CC3CCOCC3)CC2)C1 (centres undefined)

1: 9.57; 2: -6.63; 3: 4.36; 4: -5.9; 5: -3.74; 6: -8.46; 7: 14.7

Could I get cytotoxicity at 70.5 h for every one of these entries?
1. CCN1CCC2(CCN(c3ncccn3)CC2)C1=O
2. Fc1ccccc1CN1CCC[C@H](Cn2nnc(-c3cccs3)n2)C1
3. Cc1ncccc1-c1cc2cccnc2n1CCCNC(=O)C(C)(C)C
4. CCc1ncnc2c1CCN(CC(=O)N(C)C)CC2

1. -8.88
2. -0.999
3. 2.29
4. -1.77

Could I get cytotoxicity at 70.5 h for every one of these entries?
1. NC(=O)CN1CCC(NCc2cc(C(F)(F)F)ccc2Cl)CC1
2. COc1ccc(-c2nnc(CN3CCNC(=O)C3)o2)cc1
3. Cc1noc(C)c1CN1CCCC2(CCN(CC3CCCC3)C2)C1 (centres undefined)
4. COc1cccc(C(=O)N2CCC(Nc3ccc(C)nn3)CC2)c1
5. Cc1cc(CN2CCCC(Cn3cncn3)C2)on1 (centres undefined)
6. Cc1cc(OCC(=O)N2CCCC(c3nc(C)c(C)s3)C2)no1 (centres undefined)
7. Cn1ncc2c1CCCN(C(=O)C1CCC1)C2
8. CCOc1ccccc1CN(CC)Cc1ccc(S(C)(=O)=O)cc1

1. -4.69
2. -2.61
3. -3.39
4. 1.25
5. -3.16
6. 11.5
7. -2.82
8. -5.03
